- target_or_system: truncated form of human NaV 1.8 with full channel activity (expressed in HEK cells) (Homo sapiens)
- Sequence (Q9Y5Y9 126-1722 limits assumed): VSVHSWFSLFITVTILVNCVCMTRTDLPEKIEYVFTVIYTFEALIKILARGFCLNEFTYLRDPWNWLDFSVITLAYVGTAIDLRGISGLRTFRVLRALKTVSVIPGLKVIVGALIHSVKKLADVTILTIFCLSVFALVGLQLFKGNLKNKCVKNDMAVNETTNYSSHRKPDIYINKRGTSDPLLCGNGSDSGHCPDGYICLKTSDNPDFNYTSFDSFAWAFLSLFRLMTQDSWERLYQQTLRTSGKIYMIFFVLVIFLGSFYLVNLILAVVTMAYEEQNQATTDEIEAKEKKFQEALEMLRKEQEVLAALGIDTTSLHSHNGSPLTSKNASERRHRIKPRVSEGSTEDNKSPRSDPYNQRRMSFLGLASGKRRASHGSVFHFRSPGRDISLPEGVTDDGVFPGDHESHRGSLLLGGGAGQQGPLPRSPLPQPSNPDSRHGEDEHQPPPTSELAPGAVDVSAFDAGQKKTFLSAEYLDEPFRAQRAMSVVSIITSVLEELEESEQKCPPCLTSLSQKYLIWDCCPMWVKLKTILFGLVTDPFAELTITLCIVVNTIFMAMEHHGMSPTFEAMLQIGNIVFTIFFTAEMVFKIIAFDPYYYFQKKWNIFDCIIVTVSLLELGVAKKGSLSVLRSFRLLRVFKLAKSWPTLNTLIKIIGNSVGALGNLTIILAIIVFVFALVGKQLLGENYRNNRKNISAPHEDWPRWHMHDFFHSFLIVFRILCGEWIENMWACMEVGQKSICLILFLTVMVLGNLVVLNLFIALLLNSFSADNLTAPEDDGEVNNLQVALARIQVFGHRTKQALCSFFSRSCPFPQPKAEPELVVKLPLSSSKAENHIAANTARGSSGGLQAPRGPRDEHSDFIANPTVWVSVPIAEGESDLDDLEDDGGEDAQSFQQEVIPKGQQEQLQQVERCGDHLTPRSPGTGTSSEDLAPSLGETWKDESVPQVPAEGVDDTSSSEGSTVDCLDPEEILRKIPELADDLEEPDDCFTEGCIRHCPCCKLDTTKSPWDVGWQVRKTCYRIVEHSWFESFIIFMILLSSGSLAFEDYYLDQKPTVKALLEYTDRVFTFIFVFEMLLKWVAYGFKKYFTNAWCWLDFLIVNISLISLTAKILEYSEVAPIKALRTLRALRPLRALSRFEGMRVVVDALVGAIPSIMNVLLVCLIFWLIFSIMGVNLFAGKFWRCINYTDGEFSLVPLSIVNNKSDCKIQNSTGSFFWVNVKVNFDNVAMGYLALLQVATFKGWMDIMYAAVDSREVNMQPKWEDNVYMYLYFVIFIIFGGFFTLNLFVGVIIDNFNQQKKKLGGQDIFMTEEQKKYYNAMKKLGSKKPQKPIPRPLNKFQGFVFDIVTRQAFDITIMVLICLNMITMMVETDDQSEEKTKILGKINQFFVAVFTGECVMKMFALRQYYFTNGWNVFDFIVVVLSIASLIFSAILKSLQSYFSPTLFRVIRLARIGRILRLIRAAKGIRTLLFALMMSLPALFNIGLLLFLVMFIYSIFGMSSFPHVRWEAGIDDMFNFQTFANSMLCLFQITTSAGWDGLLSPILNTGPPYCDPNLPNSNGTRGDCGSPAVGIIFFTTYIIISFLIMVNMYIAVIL
- protocol_details: E-VIPR assay detecting and measuring NaV inhibition properties (electrical stimulation, membrane potential FRET dyes)
- run_conditions: HEK cells expressing truncated human NaV 1.8, KIR2.1 BacMam; 11-point dose response; 30 min compound incubation; stimulation 10 Hz for 10 s; read-out: measured IC50 value in the E-VIPR Assay
pIC50: −log10 of the molar value.
parameter: pIC50

Below, 6 molecules whose answers are already recorded.
| molecule | pIC50 |
| --- | --- |
| O=c1cc(-c2ccccc2OCc2ccc(F)cc2)[nH]c2ccccc12 | 5.30 to 5.70 |
| O=c1cc(-c2ccccc2C2CC2)[nH]c2ccccc12 | ≤ 5.30 |
| NC(=O)c1nccc2[nH]c(-c3cc4ccccc4nc3N3CCC(F)(F)C3)cc(=O)c12 | 5.70 to 6.30 |
| Cc1c(Oc2ncc(C(F)(F)F)c(C)c2-c2cc(=O)c3c(N4CC(O)C4)nccc3[nH]2)ccc(F)c1F | 5.70 to 6.30 |
| CC(C)(C)n1cc(-c2cc(=O)c3c(C(N)=O)nccc3[nH]2)c(C2CCC(F)(F)CC2)n1 | 5.70 to 6.30 |
| C=C(C)c1c(-c2c(C)cc(C(C)(C)C)cc2Oc2ccc(F)cc2OC)[nH]c2ccccc2c1=O (single isomer, unassigned) | 5.70 to 6.30 |

pIC50 reported for this molecule COc1cc(F)ccc1Oc1cc(C(C)(C)C)cc(C)c1-c1[nH]c2ccccc2c(=O)c1Br (single isomer, unassigned) : 5.70 to 6.30
